All figures here come from ChEMBL document CHEMBL1150488.

- Tested on: Staphylococcus aureus
- assay: Tested for zone of inhibition against Staphylococcus aureus UC6685 (1 mg/mL, 80 microL/6.5 mm)
- Assay type: functional
Measured Diameter of inhibition zone accompanies every entry in the list below.
Note to self: number, then unit, no commentary.

# molecule, experimental target, data value
measured = [
    ("CCCCCC(=O)N1C/C(=C(\\C)CF)C1=O", "Staphylococcus aureus", "39 mm"),
    ("CCCCCC(=O)N1C/C(=C(\\C)CN=[N+]=[N-])C1=O", "Staphylococcus aureus", "27 mm"),
]

Prompt: Requested field: Diameter of inhibition zone. Item: CC(=O)OC[C@H](C)[C@H]1CN(C(C)=O)C1=O
Completion: 0 mm

Prompt: Requested field: Diameter of inhibition zone. Item: CCCC(=O)OC[C@@H](C)[C@H]1CN(C(=O)c2ccccc2)C1=O
Completion: 0 mm

Prompt: Requested field: Diameter of inhibition zone. Item: CCCCCC(=O)N1C/C(=C(/C)COC2CCCCO2)C1=O (centres undefined)
Completion: 0 mm

Prompt: Requested field: Diameter of inhibition zone. Item: CCCC(=O)OC/C(C)=C1\CN(C(=O)CCC)C1=O
Completion: 0 mm

Prompt: Requested field: Diameter of inhibition zone. Item: CCCC(=O)N1C/C(=C(/C)COC(C)=O)C1=O
Completion: 0 mm

Prompt: Requested field: Diameter of inhibition zone. Item: CCC[C@@H]1C[C@@H](C(=O)N[C@@H]([C@H]2O[C@H](SC)[C@H](O)[C@@H](O)[C@H]2O)[C@H](C)Cl)N(C)C1
Completion: 0 mm

Prompt: Requested field: Diameter of inhibition zone. Item: CCCC(=O)N1C[C@H]([C@H](C)COC(C)=O)C1=O
Completion: 0 mm

Prompt: Requested field: Diameter of inhibition zone. Item: CCCCCC(=O)N1C/C(=C(/C)CO)C1=O
Completion: 0 mm

Prompt: Requested field: Diameter of inhibition zone. Item: CCCC(=O)OC/C(C)=C1/CN(C(=O)c2ccccc2)C1=O
Completion: 0 mm

Prompt: Requested field: Diameter of inhibition zone. Item: CCCCCC(=O)OC/C(C)=C1/CN(C(=O)CCCCC)C1=O
Completion: 0 mm

Prompt: Requested field: Diameter of inhibition zone. Item: CC(=O)OC/C(C)=C1/CN(C(C)=O)C1=O
Completion: 0 mm

Prompt: Requested field: Diameter of inhibition zone. Item: CC(=O)OC[C@@H](C)[C@H]1CN(C(C)=O)C1=O
Completion: 0 mm

Prompt: Requested field: Diameter of inhibition zone. Item: CCCCOC(=O)N1C/C(=C(\C)CN=[N+]=[N-])C1=O
Completion: 39 mm

Prompt: Requested field: Diameter of inhibition zone. Item: CCCCOC(=O)N1C[C@H]([C@H](C)CNC(C)=O)C1=O
Completion: 0 mm

Prompt: Requested field: Diameter of inhibition zone. Item: CCCCCC(=O)N1C/C(=C(\C)COC(C)=O)C1=O
Completion: 12 mm

Prompt: Requested field: Diameter of inhibition zone. Item: CCCCCC(=O)N1C[C@H]([C@H](C)Cn2nnc(C(=O)OC)c2C(=O)OC)C1=O
Completion: 0 mm

Prompt: Requested field: Diameter of inhibition zone. Item: CCCC(=O)OC/C(C)=C1/CN(C(=O)CCC)C1=O
Completion: 0 mm
